# Tested on: G. duodenalis BRIS/87/HEPU/713 assemblage A
# Assay: G. duodenalis compound susceptibility assay
# Assay type: cell-based
# Assay Conditions: Giardia duodenalis, 48 h, read-out: IC50 (nM; mean ± SD) AA

- Item Smiles: "Cc1cc2[nH]c(C(=O)Nc3ccccc3Cl)c(CN3CCOCC3)c2s1"
  Result Unit: "nM"
  IC50: 10

###

# Tested on: Neonatal Foreskin Fibroblasts (NFF)
# Assay: Mammalian cell susceptibility assay
# Format: cell-based, human
# Assay Conditions: Homo sapiens, Fibroblast, read-out: IC50 (M; mean ± SD) NFF
pIC50: −log10 of the molar value.
pIC50: recorded values
Measurement Label: pIC50

- Compound: "CCCSc1ccc2nc(NC(=O)OC)[nH]c2c1 [ABZ, Albendazole, reference compound]"
  Tested System: "Neonatal Foreskin Fibroblasts (NFF)"
  Measurement Label: "pIC50"
  Reported Relation: "="
  Val: 5.96
- Compound: "Cc1cc2[nH]c(C(=O)Nc3ccccc3Cl)c(CN3CCOCC3)c2s1"
  Tested System: "Neonatal Foreskin Fibroblasts (NFF)"
  Measurement Label: "pIC50"
  Reported Relation: "<"
  Val: 5.00
- Compound: "CCN(CC)CCCC(C)Nc1ccnc2cc(Cl)ccc12 (stereo not drawn) [CQ, chloroquine, reference compound]"
  Tested System: "Neonatal Foreskin Fibroblasts (NFF)"
  Measurement Label: "pIC50"
  Reported Relation: "="
  Val: 4.51
